Recorded values, source patent US6506734B1.

test system: B16F10; experiment: Growth inhibition test (MTT) for cytotoxic properties, B16F10; conditions: Mus musculus, B16-F10, 144 h, read-out: IC50/nM B16F10
Counter-ions that a name gives are not always drawn.
endpointLabel: IC50 (nM)
Give bare numbers, in nM.

CC[C@@]1(OC(=O)C(CC(C)C)NC(=O)[C@H](CCCCN)NC(=S)Nc2ccc(OC3O[C@@H](C)[C@@H](O)[C@@H](OC)[C@@H]3O)cc2)C(=O)OCc2c1cc1n(c2=O)Cc2cc3ccccc3nc2-1 (some centres unmarked) [Example 1, hydrochloride] | 200

Could you tell me IC50 for each of these compounds? They are listed below.
1. CC[C@@]1(OC(=O)[C@@H](CC(C)C)NC(=O)[C@H](CCCN)NC(=S)Nc2ccc(OC3O[C@@H](C)[C@@H](O)[C@@H](OC)[C@@H]3O)cc2)C(=O)OCc2c1cc1n(c2=O)Cc2cc3ccccc3nc2-1 (some centres unmarked) [Example 4, hydrochloride]
2. CC[C@@]1(OC(=O)[C@H](CC(C)C)NC(=O)[C@H](CCCCN)NC(=S)Nc2ccc(OC3O[C@@H](C)[C@@H](O)[C@@H](OC)[C@@H]3O)cc2)C(=O)OCc2c1cc1n(c2=O)Cc2cc3ccccc3nc2-1 (some centres unmarked) [Example 7, hydrochloride]
3. CC[C@@]1(OC(=O)[C@@H](CC(C)C)NC(=O)[C@@H](CCCCN)NC(=S)Nc2ccc(OC3O[C@@H](C)[C@@H](O)[C@@H](OC)[C@@H]3O)cc2)C(=O)OCc2c1cc1n(c2=O)Cc2cc3ccccc3nc2-1 (some centres unmarked) [Example 3, hydrochloride]
4. CC[C@@]1(OC(=O)[C@H](CC(C)C)NC(=O)[C@H](CCCNC(=N)N)NC(=S)Nc2ccc(OC3O[C@@H](C)[C@@H](O)[C@@H](OC)[C@@H]3O)cc2)C(=O)OCc2c1cc1n(c2=O)Cc2cc3ccccc3nc2-1 (some centres unmarked)

Solution:
[500, 20, 500, 300]
